- experimental.target: Motilin receptor (Homo sapiens)
- test.method.notes: Selectivity interaction (Enzyme panel (ion channels, GPCRs, other targets)) EUB0000196bCl MLN

{"line.notation": "O=C([C@@H](Cc1cccc(C(F)(F)F)c1)NS(=O)(=O)c1cc(F)c2c(c1)CCNC2)N1CCCC1", "Ki [µM]": 7.2}

* * *

- experimental.target: D(3) dopamine receptor (Homo sapiens)
- Sequence (P35462 whole entry): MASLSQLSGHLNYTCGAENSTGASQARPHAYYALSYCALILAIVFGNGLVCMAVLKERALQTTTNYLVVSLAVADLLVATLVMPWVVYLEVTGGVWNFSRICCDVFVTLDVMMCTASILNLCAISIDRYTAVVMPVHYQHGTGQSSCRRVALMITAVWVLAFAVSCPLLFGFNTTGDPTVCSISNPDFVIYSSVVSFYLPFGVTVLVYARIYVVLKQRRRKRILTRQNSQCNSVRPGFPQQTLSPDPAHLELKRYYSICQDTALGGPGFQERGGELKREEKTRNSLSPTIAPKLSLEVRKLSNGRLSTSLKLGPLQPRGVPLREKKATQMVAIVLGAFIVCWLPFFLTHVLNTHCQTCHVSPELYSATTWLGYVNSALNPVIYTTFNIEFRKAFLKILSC
- test.method.notes: Selectivity interaction (NIBR principial panel (12 GPCRs, 3 nuclear receptors, 3 transporters, and 7 other enzymes)) EUB0000254b DRD3
pIC50: −log10 of the molar value.
reported.property: pIC50

{"line.notation": "Cc1c(Nc2ccc(S(=O)(=O)N3CCN(C)CC3)cc2F)nc2ccc(Nc3cnn(C4CC4)c3)cn2c1=O", "experimental.target": "D(3) dopamine receptor (Homo sapiens)", "reported.property": "pIC50", "measured.value": 6.02}

* * *

- experimental.target: Protein arginine N-methyltransferase 6 (Homo sapiens)
- Sequence (Q96LA8 whole entry): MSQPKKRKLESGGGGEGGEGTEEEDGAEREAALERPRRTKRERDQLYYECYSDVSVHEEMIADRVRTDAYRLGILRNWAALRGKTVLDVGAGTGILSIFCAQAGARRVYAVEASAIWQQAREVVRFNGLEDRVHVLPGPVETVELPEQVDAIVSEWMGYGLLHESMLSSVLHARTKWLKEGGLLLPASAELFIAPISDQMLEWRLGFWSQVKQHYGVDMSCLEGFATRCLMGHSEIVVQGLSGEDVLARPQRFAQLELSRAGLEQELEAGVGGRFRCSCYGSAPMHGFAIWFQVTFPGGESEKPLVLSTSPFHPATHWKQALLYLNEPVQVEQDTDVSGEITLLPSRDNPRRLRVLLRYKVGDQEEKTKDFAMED
- test.method.notes: Selectivity interaction (Methyltransferase panel (Scintillation proximity assay (SPA))) EUB0000212b PRMT6

{"line.notation": "COc1cc2c(cc1OCCCN1CCCC1)N=C(N)C21CCC1", "EC50": "> 50 µM"}

* * *

- experimental.target: UniProt:Q15910
- Sequence (Q15910 whole entry): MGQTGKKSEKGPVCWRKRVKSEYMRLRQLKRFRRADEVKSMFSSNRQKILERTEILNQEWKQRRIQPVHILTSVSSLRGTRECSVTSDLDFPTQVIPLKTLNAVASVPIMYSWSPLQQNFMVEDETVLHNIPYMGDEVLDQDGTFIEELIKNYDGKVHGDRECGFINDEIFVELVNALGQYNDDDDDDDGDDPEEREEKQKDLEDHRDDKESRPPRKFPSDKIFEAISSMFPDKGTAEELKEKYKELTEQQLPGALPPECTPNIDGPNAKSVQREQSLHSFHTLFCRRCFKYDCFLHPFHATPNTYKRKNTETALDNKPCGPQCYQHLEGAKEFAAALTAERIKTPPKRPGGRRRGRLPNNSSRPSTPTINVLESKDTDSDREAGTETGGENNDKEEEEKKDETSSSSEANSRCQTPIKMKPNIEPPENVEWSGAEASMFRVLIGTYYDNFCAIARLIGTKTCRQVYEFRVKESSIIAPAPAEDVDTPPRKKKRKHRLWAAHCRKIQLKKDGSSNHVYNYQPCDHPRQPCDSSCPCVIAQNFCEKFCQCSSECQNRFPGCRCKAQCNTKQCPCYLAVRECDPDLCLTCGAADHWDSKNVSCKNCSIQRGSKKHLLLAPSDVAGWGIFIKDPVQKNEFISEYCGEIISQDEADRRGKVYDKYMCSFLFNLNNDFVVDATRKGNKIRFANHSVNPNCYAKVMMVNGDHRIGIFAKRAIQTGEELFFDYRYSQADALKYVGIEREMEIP
- test.method.notes: Selectivity interaction (HMT panel) EUB0000194b EZH2

{"line.notation": "COc1cc2c(NC3CCN(C(C)C)CC3)nc(N3CCC(F)(F)CC3)nc2cc1OCCCN1CCCC1", "IC50": "> 10 µM"}

* * *

- experimental.target: UniProt P34969
- Sequence (P34969 whole entry): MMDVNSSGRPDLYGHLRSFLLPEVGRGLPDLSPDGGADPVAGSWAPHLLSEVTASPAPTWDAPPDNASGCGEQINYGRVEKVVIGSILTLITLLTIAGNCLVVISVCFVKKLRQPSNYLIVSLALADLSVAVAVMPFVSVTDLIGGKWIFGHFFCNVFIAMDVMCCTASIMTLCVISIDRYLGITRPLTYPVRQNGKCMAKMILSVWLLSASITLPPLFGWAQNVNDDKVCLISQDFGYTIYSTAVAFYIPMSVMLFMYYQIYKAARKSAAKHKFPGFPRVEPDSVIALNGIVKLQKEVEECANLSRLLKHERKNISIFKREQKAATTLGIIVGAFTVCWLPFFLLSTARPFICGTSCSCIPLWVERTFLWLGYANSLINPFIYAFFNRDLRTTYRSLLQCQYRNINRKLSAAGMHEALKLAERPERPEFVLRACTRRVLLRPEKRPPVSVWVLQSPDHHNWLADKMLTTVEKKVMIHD
- test.method.notes: Selectivity interaction (GPCR panel (PDSP screen)) EUB0000252b HTR7
pKi: −log10 of the molar value.
reported.property: pKi

{"line.notation": "N#CC1(c2ccccn2)CCN(Cc2cc(C(=O)O)c(=O)n3ccccc23)CC1", "reported.property": "pKi", "measured.value": "< 5.00"}

* * *

- experimental.target: Tyrosine-protein kinase FRK (Homo sapiens, UniProt P42685)
- Sequence (P42685 whole entry): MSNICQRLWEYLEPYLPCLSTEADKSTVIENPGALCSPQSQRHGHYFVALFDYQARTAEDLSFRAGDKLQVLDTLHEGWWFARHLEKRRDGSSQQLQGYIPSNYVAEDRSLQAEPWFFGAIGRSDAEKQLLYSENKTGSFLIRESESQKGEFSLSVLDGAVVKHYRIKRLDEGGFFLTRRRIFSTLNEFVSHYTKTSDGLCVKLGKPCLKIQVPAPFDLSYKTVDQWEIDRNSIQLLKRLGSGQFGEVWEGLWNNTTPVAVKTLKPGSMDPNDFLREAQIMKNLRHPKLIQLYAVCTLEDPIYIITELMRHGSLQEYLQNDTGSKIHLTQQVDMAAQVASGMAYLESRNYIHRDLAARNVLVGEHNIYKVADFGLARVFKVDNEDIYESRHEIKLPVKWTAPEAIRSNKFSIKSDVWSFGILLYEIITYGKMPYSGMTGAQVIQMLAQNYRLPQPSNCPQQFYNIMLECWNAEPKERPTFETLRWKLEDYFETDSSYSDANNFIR
- test.method.notes: Selectivity interaction (Z’-LYTE assay (SelectScreen Invitrogen)) EUB0000690a FRK

{"line.notation": "C[C@H]1Oc2cc(cnc2N)-c2c(nn(C)c2C#N)CN(C)C(=O)c2ccc(F)cc21", "experimental.target": "Tyrosine-protein kinase FRK (Homo sapiens, UniProt P42685)", "Ki": "0.053 µM"}

* * *

- experimental.target: UniProt:P08069
- Sequence (P08069 31-736 limits assumed): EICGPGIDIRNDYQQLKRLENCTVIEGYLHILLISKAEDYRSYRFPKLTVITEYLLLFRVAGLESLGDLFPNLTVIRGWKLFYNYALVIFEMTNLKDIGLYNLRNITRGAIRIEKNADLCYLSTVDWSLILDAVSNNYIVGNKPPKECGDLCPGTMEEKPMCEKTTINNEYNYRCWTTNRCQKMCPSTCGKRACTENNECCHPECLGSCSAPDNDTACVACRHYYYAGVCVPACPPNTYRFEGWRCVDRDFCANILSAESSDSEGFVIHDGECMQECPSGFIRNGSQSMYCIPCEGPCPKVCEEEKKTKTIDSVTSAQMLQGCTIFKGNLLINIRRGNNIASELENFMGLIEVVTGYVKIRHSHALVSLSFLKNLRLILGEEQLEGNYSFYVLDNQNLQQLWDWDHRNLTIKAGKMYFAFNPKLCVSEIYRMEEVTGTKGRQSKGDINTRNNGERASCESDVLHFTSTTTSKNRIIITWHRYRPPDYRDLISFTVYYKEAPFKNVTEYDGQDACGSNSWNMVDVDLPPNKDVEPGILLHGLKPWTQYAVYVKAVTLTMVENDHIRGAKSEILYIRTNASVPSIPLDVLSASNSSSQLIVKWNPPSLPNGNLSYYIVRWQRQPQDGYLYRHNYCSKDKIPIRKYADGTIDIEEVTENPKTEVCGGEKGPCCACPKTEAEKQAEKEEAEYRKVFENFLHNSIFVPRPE
- Sequence (P08069 741-1367 limits assumed): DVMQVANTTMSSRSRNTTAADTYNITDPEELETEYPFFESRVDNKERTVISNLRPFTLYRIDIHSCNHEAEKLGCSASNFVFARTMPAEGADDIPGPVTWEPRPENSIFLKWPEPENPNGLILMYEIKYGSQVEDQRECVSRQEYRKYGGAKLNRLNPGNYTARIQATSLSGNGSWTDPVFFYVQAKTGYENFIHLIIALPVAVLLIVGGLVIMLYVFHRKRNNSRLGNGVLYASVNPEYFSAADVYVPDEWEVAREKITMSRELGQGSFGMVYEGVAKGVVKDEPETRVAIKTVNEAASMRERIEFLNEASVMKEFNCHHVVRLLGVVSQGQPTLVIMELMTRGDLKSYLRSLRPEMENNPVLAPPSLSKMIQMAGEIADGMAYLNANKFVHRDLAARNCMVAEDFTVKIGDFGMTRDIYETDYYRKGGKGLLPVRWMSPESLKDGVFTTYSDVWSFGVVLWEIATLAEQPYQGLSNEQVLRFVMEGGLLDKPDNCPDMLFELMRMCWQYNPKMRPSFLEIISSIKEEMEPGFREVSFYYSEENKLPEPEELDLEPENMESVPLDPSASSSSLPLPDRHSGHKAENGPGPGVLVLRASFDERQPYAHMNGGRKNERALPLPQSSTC
- test.method.notes: Selectivity interaction (Enzymatic assay) EUB0000609a IGF1R
reported.property: IC50 (nM)

{"line.notation": "COc1cc(N2CCC(O)CC2)ccc1Nc1cc(Nc2ccccc2S(=O)(=O)C(C)C)c2cc[nH]c2n1", "reported.property": "IC50", "measured.value": 750}

* * *

- experimental.target: Adenosine receptor A3 (Homo sapiens, UniProt P0DMS8)
- Sequence (P0DMS8 whole entry): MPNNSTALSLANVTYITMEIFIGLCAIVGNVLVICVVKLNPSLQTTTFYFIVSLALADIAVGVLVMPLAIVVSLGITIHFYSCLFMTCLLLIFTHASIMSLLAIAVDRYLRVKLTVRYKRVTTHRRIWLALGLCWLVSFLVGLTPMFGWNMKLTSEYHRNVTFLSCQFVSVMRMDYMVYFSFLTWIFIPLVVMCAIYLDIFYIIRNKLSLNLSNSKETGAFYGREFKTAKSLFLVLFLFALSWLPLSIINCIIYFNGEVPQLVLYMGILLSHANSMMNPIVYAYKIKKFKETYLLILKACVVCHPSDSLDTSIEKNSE
- test.method.notes: Selectivity interaction (Eurofins-Panlabs radioligand binding assay ) EUB0000307b ADORA3
pIC50: −log10 of the molar value.

{"molecule": "Cc1c(NC(=O)c2cc(C(N)=O)nc3cc(F)ccc23)c(C(F)(F)F)nn1Cc1ccc(C#N)cc1 [BAY-876]", "pIC50": 5.94}

* * *

- experimental.target: Dual specificity mitogen-activated protein kinase kinase 1 (Homo sapiens, UniProt Q02750)
- Sequence (Q02750 whole entry): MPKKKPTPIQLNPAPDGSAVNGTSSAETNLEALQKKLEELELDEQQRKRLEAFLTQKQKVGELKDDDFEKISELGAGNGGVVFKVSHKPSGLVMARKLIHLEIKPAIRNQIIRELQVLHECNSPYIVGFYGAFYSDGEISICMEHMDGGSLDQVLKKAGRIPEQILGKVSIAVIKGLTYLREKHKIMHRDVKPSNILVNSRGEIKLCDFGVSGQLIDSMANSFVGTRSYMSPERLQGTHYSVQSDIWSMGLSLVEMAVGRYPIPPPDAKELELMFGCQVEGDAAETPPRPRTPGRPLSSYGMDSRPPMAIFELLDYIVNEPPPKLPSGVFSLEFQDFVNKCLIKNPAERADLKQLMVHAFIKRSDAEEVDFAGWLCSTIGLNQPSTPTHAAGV
- test.method.notes: Selectivity interaction (Kinase panel (enzymatic assay)) EUB0000684a MAP2K1
reported.property: IC50 (nM)

{"line.notation": "O=C(c1ccc(F)c(F)c1Nc1ccc(I)cc1F)N1CC(O)([C@@H]2CCCCN2)C1", "reported.property": "IC50", "measured.value": 31}
